Sourced from patent US20050142192A1

Assay: ascending multiple-dose pharmacokinetic study in healthy subjects
Type: in vivo
Conditions: human, plasma, po, 800 mg, Multiple dose administration (day 14), 800 mg q 12 h Oral, fasting, mean ± SD, read-out: T½ (converted)

{"columns": ["smiles-code", "half-life, h"],
 "data": [
  ["O=c1c2c(c1=O)N(CCP(=O)(O)O)CCCN2", 16.9]
]}

====

Assay: ascending multiple-dose pharmacokinetic study in healthy subjects
Type: in vivo
Conditions: human, plasma, po, 1600 mg, Single dose administration, 1600 mg Oral, fasting, t = 0 to ∞, mean ± SD
Procedure: A study was conducted as an ascending multiple-dose tolerance study of 2-(8,9-dioxo-2,6-diazabicyclo[5.2.0]non-1(7)-en-2-yl)ethyl]phosphonic acid with administration of 200, 400, 800, and 1600 mg oral doses in healthy subjects over a 14-day period.

{"columns": ["smiles-code", "AUC"],
 "data": [
  ["O=c1c2c(c1=O)N(CCP(=O)(O)O)CCCN2", "4060 ng·h/mL"]
]}

====

Assay: ascending single-dose pharmacokinetic study in healthy subjects
Type: in vivo, human
Settings: human, plasma, po, 1000 mg, 1000 mg Oral, fed (high-fat, high-calorie meal), single administration, healthy subjects, t = 0 to ∞, mean ± SD
assay-metric: AUC (ng·h/mL)

{"columns": ["smiles-code", "assay-metric", "recorded-measurement"],
 "data": [
  ["O=c1c2c(c1=O)N(CCP(=O)(O)O)CCCN2", "AUC", 2210]
]}

====

Test: ascending multiple-dose pharmacokinetic study in healthy subjects
Type: in vivo
Conditions: human, plasma, po, 200 mg, Multiple dose administration (day 14), 200 mg q 12 h Oral, fed, mean ± SD, read-out: T½ (converted)

{"columns": ["smiles-code", "unit-text", "half-life"],
 "data": [
  ["O=c1c2c(c1=O)N(CCP(=O)(O)O)CCCN2", "min", 396]
]}

====

Assay: ascending multiple-dose pharmacokinetic study in healthy subjects
Type: in vivo
Details: human, plasma, po, 1600 mg, Single dose administration, 1600 mg Oral, fasting, mean ± SD
assay-metric: Tmax (h)

{"columns": ["smiles-code", "assay-metric", "recorded-measurement"],
 "data": [
  ["O=c1c2c(c1=O)N(CCP(=O)(O)O)CCCN2", "Tmax", 1.3]
]}

====

Test: ascending single-dose pharmacokinetic study in healthy subjects
Assay type: in vivo, human
Conditions: human, plasma, po, 2000 mg, 2000 mg Oral, fasting, single administration, healthy adult subjects, mean ± SD; read-out: T½ (converted)
Experimental: A study was conducted as an ascending single-dose tolerance study with fasting administration of 500, 1000, 2000, and 4000 mg oral doses. In each cohort, 8 subjects received either placebo (2 subjects) or the prescribed dose of 2-(8,9-dioxo-2,6-diazabicyclo[5.2.0]non-1(7)-en-2-yl)ethyl]phosphonic acid (6 subjects). Subjects in the fasting 1000-mg cohort were crossed over to receive a 1000-mg postprandial dose in study period 2. […]

{"columns": ["smiles-code", "half-life"],
 "data": [
  ["O=c1c2c(c1=O)N(CCP(=O)(O)O)CCCN2", "384 min"]
]}

====

Experiment: ascending single-dose pharmacokinetic study in healthy subjects
Format: in vivo, human
Settings: human, plasma, po, 1000 mg, 1000 mg Oral, fed (high-fat, high-calorie meal), single administration, healthy subjects, mean ± SD

{"columns": ["smiles-code", "Cmax [ng/mL]"],
 "data": [
  ["O=c1c2c(c1=O)N(CCP(=O)(O)O)CCCN2", 392]
]}

====

Assay: ascending single-dose pharmacokinetic study in healthy subjects
Type: in vivo, human
Settings: human, plasma, po, 2000 mg, healthy adult subjects, 2000 mg, fasting, single-dose; read-out: mean oral-dose clearance (C1/F) (converted)

{"columns": ["smiles-code", "CL/F (mL/min/kg)"],
 "data": [
  ["O=c1c2c(c1=O)N(CCP(=O)(O)O)CCCN2", 58.3]
]}

====

Assay: animal absorption study, oral bioavailability in monkeys
Settings: monkey, in vivo, 100 mg/kg
assay-metric: bioavailability

{"columns": ["smiles-code", "recorded-measurement"],
 "data": [
  ["O=c1c2c(c1=O)N(CCP(=O)(O)O)CCCN2", "~2.5%"]
]}

====

Assay: ascending multiple-dose pharmacokinetic study in healthy subjects
Format: in vivo
Conditions: human, plasma, po, 400 mg, Single dose administration, 400 mg Oral, fasting, t = 0 to ∞, mean ± SD

{"columns": ["smiles-code", "AUC"],
 "data": [
  ["O=c1c2c(c1=O)N(CCP(=O)(O)O)CCCN2", "1490 ng·h/mL"]
]}

====

Test: apparent n-octanol/water partition coefficient
assay-metric: logP

{"columns": ["smiles-code", "recorded-measurement"],
 "data": [
  ["O=c1c2c(c1=O)N(CCP(=O)(O)O)CCCN2", -1.37]
]}

====

Experiment: ascending multiple-dose pharmacokinetic study in healthy subjects
Type: in vivo
Settings: human, plasma, po, 400 mg, Multiple dose administration (day 14), 400 mg q 12 h Oral, fasting, t = 0 to 12 hours (tau), mean ± SD
assay-metric: AUC (ng·h/mL)

{"columns": ["smiles-code", "recorded-measurement"],
 "data": [
  ["O=c1c2c(c1=O)N(CCP(=O)(O)O)CCCN2", 1810]
]}

====

Assay: ascending multiple-dose pharmacokinetic study in healthy subjects
Assay type: in vivo
Settings: human, plasma, po, 1600 mg, Multiple dose administration (day 14), 1600 mg q 12 h Oral, fasting, t = 0 to 12 hours (tau), mean ± SD

{"columns": ["smiles-code", "AUC"],
 "data": [
  ["O=c1c2c(c1=O)N(CCP(=O)(O)O)CCCN2", "4910 ng·h/mL"]
]}

====

Experiment: ascending single-dose pharmacokinetic study in healthy subjects
Assay type: in vivo, human
Details: human, plasma, po, 4000 mg, 4000 mg Oral, fasting, single administration, healthy subjects, mean ± SD

{"columns": ["smiles-code", "Cmax / ng/mL"],
 "data": [
  ["O=c1c2c(c1=O)N(CCP(=O)(O)O)CCCN2", 1490]
]}

====

Test: ascending multiple-dose pharmacokinetic study in healthy subjects
Type: in vivo
Conditions: human, plasma, po, 1600 mg, Multiple dose administration (day 14), 1600 mg q 12 h Oral, fasting, mean ± SD, read-out: T½ (converted)
assay-metric: half-life (h)

{"columns": ["smiles-code", "recorded-measurement"],
 "data": [
  ["O=c1c2c(c1=O)N(CCP(=O)(O)O)CCCN2", 10.5]
]}

====

Experiment: ascending single-dose pharmacokinetic study in healthy subjects
Assay type: in vivo, human
Conditions: human, plasma, po, 1000 mg, 1000 mg Oral, fed (high-fat, high-calorie meal), single administration, healthy subjects, mean ± SD; read-out: T½ (converted)

{"columns": ["smiles-code", "half-life [h]"],
 "data": [
  ["O=c1c2c(c1=O)N(CCP(=O)(O)O)CCCN2", 16]
]}

====

Assay: ascending single-dose pharmacokinetic study in healthy subjects
Type: in vivo, human
Conditions: human, plasma, po, 2000 mg, 2000 mg Oral, fasting, single administration, healthy adult subjects, mean ± SD
assay-metric: Cmax (ng/mL)

{"columns": ["smiles-code", "assay-metric", "recorded-measurement"],
 "data": [
  ["O=c1c2c(c1=O)N(CCP(=O)(O)O)CCCN2", "Cmax", 1790]
]}

====

Assay: ascending single-dose pharmacokinetic study in healthy subjects
Format: in vivo, human
Details: human, plasma, po, 500 mg, 500 mg Oral, fasting, single administration, healthy subjects, mean ± SD; read-out: T½ (converted)

{"columns": ["smiles-code", "half-life"],
 "data": [
  ["O=c1c2c(c1=O)N(CCP(=O)(O)O)CCCN2", "402 min"]
]}

====

Experiment: ascending multiple-dose pharmacokinetic study in healthy subjects
Type: in vivo
Settings: human, plasma, po, 400 mg, Single dose administration, 400 mg Oral, fasting, mean ± SD

{"columns": ["smiles-code", "unit-text", "Tmax"],
 "data": [
  ["O=c1c2c(c1=O)N(CCP(=O)(O)O)CCCN2", "h", 2]
]}

====

Assay: ascending multiple-dose pharmacokinetic study in healthy subjects
Assay type: in vivo
Details: human, plasma, po, 800 mg, Single dose administration, 800 mg Oral, fasting, t = 0 to ∞, mean ± SD

{"columns": ["smiles-code", "AUC [ng·h/mL]"],
 "data": [
  ["O=c1c2c(c1=O)N(CCP(=O)(O)O)CCCN2", 3190]
]}

====

Test: ascending single-dose pharmacokinetic study in healthy subjects
Assay type: in vivo
Details: human, plasma, intravenous, 100 mg, 100 mg 1-hour, infusion, mean ± SD

{"columns": ["smiles-code", "Cmax (ng/mL)"],
 "data": [
  ["O=c1c2c(c1=O)N(CCP(=O)(O)O)CCCN2", 4010]
]}

====

Experiment: ascending multiple-dose pharmacokinetic study in healthy subjects
Assay type: in vivo
Details: human, plasma, po, 400 mg, Multiple dose administration (day 14), 400 mg q 12 h Oral, fasting, mean ± SD
assay-metric: Cmax (ng/mL)

{"columns": ["smiles-code", "recorded-measurement"],
 "data": [
  ["O=c1c2c(c1=O)N(CCP(=O)(O)O)CCCN2", 398]
]}
